protocol: budding yeast growth changes without added modifier – OD600, strain BY4716, 24 h, basal condition, primary screen (AID 1173)
test_conditions: S. cerevisiae BY4716 growth, OD600, 24 h; higher = more signal, called active from +8 up or from −8 down
The source made the active and inactive calls.
property_name: z-score

compound=O=C1O[C@H](c2ccccc2)[C@H](c2ccccc2)N2[C@H]1[C@@H](C(=O)N1CCN(c3ncccn3)CC1)[C@]1(C(=O)Nc3ccc(C#CCCO)cc31)[C@H]2c1ccccc1OCCO property_name=z-score result="0.687 (inactive)"
compound=COCCOC(=O)N1C(=O)[C@@]2(c3cc(C#CC4(O)CCCCCC4)ccc31)[C@H](C(=O)N1CCN(c3ncccn3)CC1)[C@H]1C(=O)O[C@H](c3ccccc3)[C@H](c3ccccc3)N1[C@@H]2c1ccc(O)cc1 property_name=z-score result="1.04 (inactive)"
compound=COC(=O)C(CC#Cc1ccc2c(c1)[C@]1(C(=O)N2)[C@H](C(=O)N2CCc3cc(OC)c(OC)cc3C2)[C@H]2C(=O)O[C@H](c3ccccc3)[C@H](c3ccccc3)N2[C@@H]1c1ccc(OCCO)cc1)C(=O)OC property_name=z-score result="2.36 (inactive)"
compound="CC1(C)[C@@H]2CC(C(O)C3C=CC4C(=O)N(c5ccccc5)C(=O)C4N3Nc3ccccc3F)=C[C@@H]1C2 (stereo partly drawn)" property_name=z-score result="-0.393 (inactive)"
compound=COCCOC(=O)N1C(=O)[C@@]2(c3cc(C#CCCO)ccc31)[C@H](C(=O)NC[C@H](O)c1ccccc1)[C@H]1C(=O)O[C@H](c3ccccc3)[C@H](c3ccccc3)N1[C@@H]2c1ccccc1OCCO property_name=z-score result="0.446 (inactive)"
compound=O=C1c2ccccc2[C@](Cc2ccccc2I)(C(=O)NC2CC2)[C@H](c2ccc(CO)cc2)N1Cc1ccccc1Cl property_name=z-score result="0.504 (inactive)"

Per the records, this compound ( CCOC(=O)C1=CCC(c2cccc(Cl)c2)O1 (stereo not drawn) ) has z-score equal to -4.22 (inactive)

Per the records, this compound ( `Cc1ccc(S[C@]2(C(=O)NCC(C)C)CC(=O)N(C3CCCCC3)[C@@H]2c2ccc(CO)cc2I)cc1` ) has z-score equal to -1.05 (inactive)

Per the records, this compound ( `CCCC[C@H]1OB(O)C[C@H]2C1=C(COc1ccccc1)Cn1c(=O)n(-c3ccccc3)c(=O)n12` ) has z-score equal to -6.02 (inactive)

Per the records, this compound ( `COCCOC(=O)N1C(=O)[C@@]2(c3cc(C#CCC(C(=O)OC)C(=O)OC)ccc31)[C@H](c1ccc(OCCO)cc1)N1[C@H](c3ccccc3)[C@H](c3ccccc3)OC(=O)[C@H]1[C@@H]2C(N)=O` ) has z-score equal to 1.87 (inactive)

Per the records, this compound ( O=C1C2C=CC(C(O)c3ccc(Br)cc3)N(Nc3ccccc3)C2C(=O)N1c1ccccc1 (stereo not drawn) ) has z-score equal to -3.48 (inactive)

Per the records, this compound ( `CC(C)CNC(=O)[C@@]1(C)c2ccccc2C(=O)N(Cc2ccccc2)[C@H]1c1ccc(CO)cc1` ) has z-score equal to -0.11 (inactive)

Per the records, this compound ( `COc1cccc(C)c1NC(=O)O[C@H]1[C@H](OC(=O)Nc2ccccc2)[C@H](OC(=O)Nc2ccccc2)[C@@H](OC)O[C@@H]1CO` ) has z-score equal to 0.803 (inactive)

The measurements presented in this section are drawn from PubChem BioAssay.
